The values you see were collected from patent US9586951B2.

Molecular target: ATM (Homo sapiens, UniProt Q13315)
Construct: detecting phosphorylation of Chk2 in a human non-small cell lung cancer cell line NCI-H460 (ATCC company); host or cells: NCI-H460 human non-small cell lung cancer cells
Sequence (Q13315 whole entry): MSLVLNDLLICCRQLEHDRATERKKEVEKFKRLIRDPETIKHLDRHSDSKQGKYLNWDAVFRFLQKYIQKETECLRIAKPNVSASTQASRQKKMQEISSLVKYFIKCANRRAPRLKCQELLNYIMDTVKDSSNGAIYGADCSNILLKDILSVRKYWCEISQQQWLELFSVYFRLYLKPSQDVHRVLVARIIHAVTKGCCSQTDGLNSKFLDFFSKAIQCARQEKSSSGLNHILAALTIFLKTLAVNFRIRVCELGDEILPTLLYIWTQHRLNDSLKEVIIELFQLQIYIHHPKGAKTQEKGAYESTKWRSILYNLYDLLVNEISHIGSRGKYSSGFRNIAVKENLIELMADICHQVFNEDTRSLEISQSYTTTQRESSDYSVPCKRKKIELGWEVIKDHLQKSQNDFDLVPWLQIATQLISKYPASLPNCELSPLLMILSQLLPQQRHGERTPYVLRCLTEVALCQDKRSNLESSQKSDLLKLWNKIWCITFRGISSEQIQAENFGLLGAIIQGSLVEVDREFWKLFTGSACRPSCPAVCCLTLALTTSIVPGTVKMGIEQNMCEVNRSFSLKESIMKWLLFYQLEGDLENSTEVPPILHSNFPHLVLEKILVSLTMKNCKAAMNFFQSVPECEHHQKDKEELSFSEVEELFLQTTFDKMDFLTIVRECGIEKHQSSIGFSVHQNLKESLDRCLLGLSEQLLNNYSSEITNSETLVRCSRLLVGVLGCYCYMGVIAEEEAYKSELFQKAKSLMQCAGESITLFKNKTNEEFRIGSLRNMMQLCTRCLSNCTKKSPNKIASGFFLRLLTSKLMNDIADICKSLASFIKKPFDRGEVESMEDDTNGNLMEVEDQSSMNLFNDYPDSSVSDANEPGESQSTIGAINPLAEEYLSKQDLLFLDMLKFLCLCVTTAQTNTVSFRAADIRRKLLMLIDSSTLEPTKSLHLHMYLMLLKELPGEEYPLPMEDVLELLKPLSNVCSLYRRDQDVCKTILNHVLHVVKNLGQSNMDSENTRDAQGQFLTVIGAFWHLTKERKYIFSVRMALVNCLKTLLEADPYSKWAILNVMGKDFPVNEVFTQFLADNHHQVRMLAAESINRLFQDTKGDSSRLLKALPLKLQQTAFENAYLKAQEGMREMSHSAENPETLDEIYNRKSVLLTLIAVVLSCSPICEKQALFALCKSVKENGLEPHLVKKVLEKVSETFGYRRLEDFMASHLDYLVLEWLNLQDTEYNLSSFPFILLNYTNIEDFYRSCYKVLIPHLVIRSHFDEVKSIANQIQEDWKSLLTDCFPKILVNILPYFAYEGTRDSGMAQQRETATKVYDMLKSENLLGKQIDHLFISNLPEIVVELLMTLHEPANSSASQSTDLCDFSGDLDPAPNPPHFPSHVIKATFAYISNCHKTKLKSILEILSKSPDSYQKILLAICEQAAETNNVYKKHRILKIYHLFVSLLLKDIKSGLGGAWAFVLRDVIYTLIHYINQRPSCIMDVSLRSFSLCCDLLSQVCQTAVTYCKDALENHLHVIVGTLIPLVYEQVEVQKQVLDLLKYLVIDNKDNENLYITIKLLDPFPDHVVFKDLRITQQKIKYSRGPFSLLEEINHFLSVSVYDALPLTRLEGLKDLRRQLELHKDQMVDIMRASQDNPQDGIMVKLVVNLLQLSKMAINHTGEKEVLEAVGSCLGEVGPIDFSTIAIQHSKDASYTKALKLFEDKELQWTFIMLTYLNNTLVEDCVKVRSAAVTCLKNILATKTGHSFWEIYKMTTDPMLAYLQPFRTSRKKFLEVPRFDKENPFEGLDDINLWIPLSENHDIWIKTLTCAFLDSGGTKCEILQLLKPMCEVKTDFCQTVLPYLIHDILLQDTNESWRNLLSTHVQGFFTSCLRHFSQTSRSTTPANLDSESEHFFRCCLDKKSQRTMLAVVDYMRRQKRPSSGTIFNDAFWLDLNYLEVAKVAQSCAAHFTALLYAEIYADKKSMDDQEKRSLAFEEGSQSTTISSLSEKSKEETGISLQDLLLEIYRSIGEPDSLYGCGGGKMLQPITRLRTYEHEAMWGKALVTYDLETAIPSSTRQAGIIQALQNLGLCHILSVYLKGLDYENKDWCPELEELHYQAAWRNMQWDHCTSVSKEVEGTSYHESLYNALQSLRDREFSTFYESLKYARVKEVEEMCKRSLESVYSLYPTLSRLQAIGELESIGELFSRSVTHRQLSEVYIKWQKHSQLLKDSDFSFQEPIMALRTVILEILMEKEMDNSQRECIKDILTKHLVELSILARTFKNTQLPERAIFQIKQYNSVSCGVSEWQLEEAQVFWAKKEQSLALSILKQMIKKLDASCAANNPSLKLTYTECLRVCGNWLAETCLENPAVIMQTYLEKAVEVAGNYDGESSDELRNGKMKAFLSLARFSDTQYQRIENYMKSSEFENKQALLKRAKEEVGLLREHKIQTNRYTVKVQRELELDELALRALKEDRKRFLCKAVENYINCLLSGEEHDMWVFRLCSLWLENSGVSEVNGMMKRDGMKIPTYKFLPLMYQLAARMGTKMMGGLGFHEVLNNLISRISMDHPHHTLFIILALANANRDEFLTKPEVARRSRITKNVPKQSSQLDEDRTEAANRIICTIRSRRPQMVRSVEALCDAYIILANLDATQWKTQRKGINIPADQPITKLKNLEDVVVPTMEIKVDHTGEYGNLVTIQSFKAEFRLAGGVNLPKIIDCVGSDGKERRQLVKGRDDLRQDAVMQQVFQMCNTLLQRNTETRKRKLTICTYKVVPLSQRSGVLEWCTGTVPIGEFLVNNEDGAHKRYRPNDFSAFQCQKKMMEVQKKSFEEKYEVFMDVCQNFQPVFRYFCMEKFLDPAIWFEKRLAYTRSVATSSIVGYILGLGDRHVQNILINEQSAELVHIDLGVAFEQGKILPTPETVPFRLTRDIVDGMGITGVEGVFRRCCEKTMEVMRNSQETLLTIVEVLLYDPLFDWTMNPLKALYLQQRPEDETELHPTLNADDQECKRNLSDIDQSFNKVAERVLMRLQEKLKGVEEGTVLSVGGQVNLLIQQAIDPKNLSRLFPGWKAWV
Assay: ATM inhibition test (phosphorylation of Chk2 generated by ionizing radiation, AlphaScreen SureFire)
Assay type: cell-based
Conditions: phosphorylated Chk2 in NCI-H460 cells, ionizing radiation 8Gy, 1 hour after test compound treatment; read-out: ATM inhibitory activity
# IC50 per entry
Measurement Type: IC50

[
  {
    "Compound": "CC1CC(C)CN(CC(CO)Nc2ccc3c(c2)Sc2cccc(-c4cc(N5CCOCC5)cc(=O)[nH]4)c2S3)C1 (stereo not drawn)",
    "Experimental System": "ATM (Homo sapiens, UniProt Q13315)",
    "Measurement Type": "IC50",
    "Measured": "100 to 500 nM"
  },
  {
    "Compound": "O=c1cc(N2CCOCC2)cc(-c2cccc3c2Sc2ccc(NCc4cncc(-c5cccnc5)c4)cc2S3)[nH]1",
    "Experimental System": "ATM (Homo sapiens, UniProt Q13315)",
    "Measurement Type": "IC50",
    "Measured": "< 100 nM"
  },
  {
    "Compound": "CCOC(=O)c1cccc(CNc2ccc3c(c2)Cc2cccc(-c4cc(N5CCOCC5)cc(=O)[nH]4)c2O3)n1",
    "Experimental System": "ATM (Homo sapiens, UniProt Q13315)",
    "Measurement Type": "IC50",
    "Measured": "100 to 500 nM"
  },
  {
    "Compound": "O=c1cc(N2CCOCC2)cc(-c2cccc3c2Oc2ccc(NCc4cncc(-n5cncn5)c4)cc2C3)[nH]1",
    "Experimental System": "ATM (Homo sapiens, UniProt Q13315)",
    "Measurement Type": "IC50",
    "Measured": "100 to 500 nM"
  },
  {
    "Compound": "O=c1cc(N2CCOCC2)cc(-c2cccc3c2Sc2ccc(NC4CCN(Cc5cccnc5)C4)cc2S3)[nH]1 (stereo not drawn)",
    "Experimental System": "ATM (Homo sapiens, UniProt Q13315)",
    "Measurement Type": "IC50",
    "Measured": "< 100 nM"
  },
  {
    "Compound": "CC(Nc1ccc2c(c1)Sc1cccc(-c3cc(N4CCOCC4)cc(=O)[nH]3)c1S2)c1cc(CF)ncn1 (stereo not drawn)",
    "Experimental System": "ATM (Homo sapiens, UniProt Q13315)",
    "Measurement Type": "IC50",
    "Measured": "< 100 nM"
  },
  {
    "Compound": "O=c1cc(N2CCOCC2)cc(-c2cccc3c2Oc2ccc(NCc4cccc(C5CC5)n4)cc2C3)[nH]1",
    "Experimental System": "ATM (Homo sapiens, UniProt Q13315)",
    "Measurement Type": "IC50",
    "Measured": "100 to 500 nM"
  },
  {
    "Compound": "O=c1cc(N2CCOCC2)cc(-c2cccc3c2Sc2ccc(NC4CCNCC4)cc2S3)[nH]1",
    "Experimental System": "ATM (Homo sapiens, UniProt Q13315)",
    "Measurement Type": "IC50",
    "Measured": "< 100 nM"
  },
  {
    "Compound": "CC(CN1CCOCC1)Nc1ccc2c(c1)Sc1cccc(-c3cc(N4CCOCC4)cc(=O)[nH]3)c1S2 (racemic) [Example 1-13-2-1]",
    "Experimental System": "ATM (Homo sapiens, UniProt Q13315)",
    "Measurement Type": "IC50",
    "Measured": "< 100 nM"
  },
  {
    "Compound": "COc1ncccc1CNc1ccc2c(c1)Cc1cccc(-c3cc(N4CCOCC4)cc(=O)[nH]3)c1S2",
    "Experimental System": "ATM (Homo sapiens, UniProt Q13315)",
    "Measurement Type": "IC50",
    "Measured": "500 to 2000 nM"
  },
  {
    "Compound": "Cc1ccc(C(Nc2ccc3c(c2)Sc2cccc(-c4cc(N5CCOCC5)cc(=O)[nH]4)c2S3)C2CN(C)C2)nc1 (stereo not drawn)",
    "Experimental System": "ATM (Homo sapiens, UniProt Q13315)",
    "Measurement Type": "IC50",
    "Measured": "100 to 500 nM"
  },
  {
    "Compound": "Cc1cncc(CNc2ccc3c(c2)Cc2cccc(-c4cc(N5CCOCC5)cc(=O)[nH]4)c2O3)c1",
    "Experimental System": "ATM (Homo sapiens, UniProt Q13315)",
    "Measurement Type": "IC50",
    "Measured": "100 to 500 nM"
  }
]
